These entries and their values trace back to patent US11040976B2.

Give Average Z-score (Fluorescence anisotropy) for every item shown.
- measured_on: Human N-His6-IDE42-1019 (E. coli expressed) (Homo sapiens, UniProt P14735)
- Construct: Human N-His6-IDE42-1019 (E. coli expressed); made in house; host or cells: E. coli (Rosetta 2 (DE3) pLysS, plasmid pTrcHis-A)
- protocol_description: Fluorescence anisotropy high-throughput screening assay (displacement of probe FL-6b)
- Assay type: binding
- assay_conditions: final compound concentration 20 μM (6bK control 1 μM); values without asterisk
One number for each entry.

# batch: return Average Z-score (Fluorescence anisotropy) for each of the 7 molecules below
1. COc1ccc(NC(=O)N2CCCCN3[C@H](CO)[C@H](c4ccc(-c5ccccc5C)cc4)[C@@H]3C2)cc1
2. Cc1cccc(-c2ccc([C@@H]3[C@@H](CO)N4C(=O)CN(C(=O)NC5CCCCC5)C[C@@H]34)cc2)c1
3. Cc1ccccc1-c1ccc([C@H]2[C@H](CO)N3C(=O)CN(C(=O)NC4CCCC4)C[C@@H]23)cc1
4. Cc1cccc(-c2ccc([C@@H]3[C@@H](CO)N4CCCCN(Cc5cncnc5)C[C@@H]34)cc2)c1
5. Cc1ccccc1-c1ccc(C2C3CN(Cc4cncnc4)CC2N3)cc1 (centres unmarked)
6. CCCNC(=O)N1CC(=O)N2[C@H](CO)[C@H](c3ccc(-c4cccc(C)c4)cc3)[C@@H]2C1
7. Cc1ccccc1-c1ccc(C2C3CN(Cc4cocn4)CC2N3)cc1 (centres unmarked)

1: −0.82; 2: −16.59; 3: −20.82; 4: −6.65; 5: −2.58; 6: −16.08; 7: −3.01

The observed Average Z-score (Fluorescence anisotropy) for CCS(=O)(=O)N1CCCCN2[C@@H](CO)[C@@H](c3ccc(C#Cc4ccccc4OC)cc3)[C@@H]2C1 when tested with Human N-His6-IDE42-1019 (E. coli expressed) (Homo sapiens, UniProt P14735) stands at −19.69

###

- measured_on: Human N-His6-IDE42-1019 (E. coli expressed) (Homo sapiens)
- Construct: Human N-His6-IDE42-1019 (E. coli expressed); made in house; host or cells: E. coli (Rosetta 2 (DE3) pLysS, plasmid pTrcHis-A)
- Sequence (P14735 42-1019): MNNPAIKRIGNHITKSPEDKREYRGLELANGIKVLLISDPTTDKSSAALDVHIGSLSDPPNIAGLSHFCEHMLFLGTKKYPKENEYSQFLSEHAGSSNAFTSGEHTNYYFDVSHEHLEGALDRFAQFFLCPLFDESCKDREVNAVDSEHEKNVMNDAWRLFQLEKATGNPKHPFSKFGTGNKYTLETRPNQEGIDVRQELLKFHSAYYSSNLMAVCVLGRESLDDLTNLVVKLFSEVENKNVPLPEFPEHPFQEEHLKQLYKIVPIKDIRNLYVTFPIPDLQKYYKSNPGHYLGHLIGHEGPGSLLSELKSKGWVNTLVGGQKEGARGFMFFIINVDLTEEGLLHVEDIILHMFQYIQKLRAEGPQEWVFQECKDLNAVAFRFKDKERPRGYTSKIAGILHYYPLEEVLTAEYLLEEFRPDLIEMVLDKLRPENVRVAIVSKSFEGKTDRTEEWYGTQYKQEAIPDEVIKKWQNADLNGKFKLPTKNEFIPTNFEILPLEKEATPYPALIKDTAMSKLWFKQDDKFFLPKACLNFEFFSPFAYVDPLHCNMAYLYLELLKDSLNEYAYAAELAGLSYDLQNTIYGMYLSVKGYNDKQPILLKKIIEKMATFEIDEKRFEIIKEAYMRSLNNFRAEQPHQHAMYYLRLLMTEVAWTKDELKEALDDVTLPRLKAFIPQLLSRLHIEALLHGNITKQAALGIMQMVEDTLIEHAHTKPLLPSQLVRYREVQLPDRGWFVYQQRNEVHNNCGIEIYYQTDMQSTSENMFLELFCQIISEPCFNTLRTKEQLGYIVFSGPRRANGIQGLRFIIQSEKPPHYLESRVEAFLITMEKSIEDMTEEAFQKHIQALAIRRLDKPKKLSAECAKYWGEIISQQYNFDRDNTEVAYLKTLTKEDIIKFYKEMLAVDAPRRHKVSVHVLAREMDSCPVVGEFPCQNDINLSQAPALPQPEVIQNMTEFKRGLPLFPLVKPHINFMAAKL
- protocol_description: Fluorescence anisotropy high-throughput screening assay (displacement of probe FL-6b)
- Assay type: binding
- assay_conditions: final compound concentration 20 μM (6bK control 1 μM); values without asterisk
Give Average Z-score (Fluorescence anisotropy) for every item shown.
Answers are plain numbers.

Worked set:
Record summary for Cc1ccccc1-c1ccc([C@H]2[C@H](CO)N3C(=O)CN(C(=O)c4ccc(F)cc4)C[C@@H]23)cc1 : reported Average Z-score (Fluorescence anisotropy) = −16.49

Record summary for Cc1ccccc1-c1ccc([C@H]2[C@H](CO)N3C(=O)CN(S(C)(=O)=O)C[C@@H]23)cc1 : reported Average Z-score (Fluorescence anisotropy) = −1.36

Record summary for Cc1cccc(-c2ccc([C@@H]3[C@@H](CO)N4CCCCN(S(=O)(=O)c5ccccc5C)C[C@@H]34)cc2)c1 : reported Average Z-score (Fluorescence anisotropy) = −20.26

Okay, next one:
Record summary for Cc1ccccc1-c1ccc(C2C3CN(S(=O)(=O)c4cn(C)cn4)CC2N3)cc1 (stereo not shown) : reported Average Z-score (Fluorescence anisotropy) = −16.62
